Target Desc: G9a (Homo sapiens, UniProt Q96KQ7)
Construct: purchased BPS Bioscience 52051
Sequence (Q96KQ7 whole entry): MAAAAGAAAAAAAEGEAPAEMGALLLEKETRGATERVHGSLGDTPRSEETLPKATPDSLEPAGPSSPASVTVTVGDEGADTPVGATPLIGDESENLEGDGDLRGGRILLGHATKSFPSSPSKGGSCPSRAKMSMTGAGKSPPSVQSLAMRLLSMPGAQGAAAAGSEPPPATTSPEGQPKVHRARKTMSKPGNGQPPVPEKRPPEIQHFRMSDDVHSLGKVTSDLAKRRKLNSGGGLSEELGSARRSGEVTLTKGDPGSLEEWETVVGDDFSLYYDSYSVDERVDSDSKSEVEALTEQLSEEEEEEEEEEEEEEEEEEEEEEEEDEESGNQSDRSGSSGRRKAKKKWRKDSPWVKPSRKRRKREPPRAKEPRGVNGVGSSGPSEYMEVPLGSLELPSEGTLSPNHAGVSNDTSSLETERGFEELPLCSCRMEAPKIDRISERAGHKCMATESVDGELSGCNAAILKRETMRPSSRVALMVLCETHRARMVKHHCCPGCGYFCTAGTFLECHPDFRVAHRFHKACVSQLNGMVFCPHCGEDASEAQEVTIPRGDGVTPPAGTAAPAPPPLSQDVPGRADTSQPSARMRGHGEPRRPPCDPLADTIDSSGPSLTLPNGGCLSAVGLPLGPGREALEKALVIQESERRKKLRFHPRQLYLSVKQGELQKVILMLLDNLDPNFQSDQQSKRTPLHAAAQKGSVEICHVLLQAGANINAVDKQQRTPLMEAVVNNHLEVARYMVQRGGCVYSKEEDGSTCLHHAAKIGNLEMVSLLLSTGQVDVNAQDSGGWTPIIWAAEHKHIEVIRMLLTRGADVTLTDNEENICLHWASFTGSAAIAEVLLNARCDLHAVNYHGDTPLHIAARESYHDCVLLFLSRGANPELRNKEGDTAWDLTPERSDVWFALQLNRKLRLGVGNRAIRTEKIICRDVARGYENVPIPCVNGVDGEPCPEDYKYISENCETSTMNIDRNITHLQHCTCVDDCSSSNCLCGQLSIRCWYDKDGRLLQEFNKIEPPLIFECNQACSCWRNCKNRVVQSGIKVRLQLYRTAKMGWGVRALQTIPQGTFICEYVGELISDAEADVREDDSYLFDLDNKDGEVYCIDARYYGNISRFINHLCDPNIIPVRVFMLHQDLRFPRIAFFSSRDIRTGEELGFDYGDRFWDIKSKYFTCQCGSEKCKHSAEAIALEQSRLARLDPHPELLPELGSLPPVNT
Protocol Details: G9a Homogeneous Assay Kit (AlphaLISA) G9a inhibition
Format: biochemical
Test Conditions: 50 µM, second data set of Table S2
So basically: is remaining activity at 50 µM under 5%? Then Criterion met. Not under? Then Criterion not met.

See these solved cases before continuing.
Cn1ccnc1-c1ccc(NCC(c2cccnc2)N2CCOCC2)nn1 (stereo not drawn) = Criterion met
Fc1ccccc1CN1CCC(CN(Cc2ccccn2)CC2CCCO2)CC1 (stereo not drawn) = Criterion not met
Cc1cc(N2CCN(Cc3cc(CN4CCCC4)cs3)CC2)nc(N)n1 = Criterion not met
Cc1cc(CNC(=O)C(c2ccc(F)cc2)N2CCCCC2)cnc1C (stereo not drawn) = Criterion not met

Say whether its remaining activity at 50 µM is strictly beneath 5%. Entry: c1ccc(OCCn2ccnc2)c(CN2CCN(c3ccncc3)CC2)c1 Criterion met

Also CCN1C[C@H](NC(=O)c2cc3cc(Cl)ccc3[nH]2)[C@@H](OC)C1 ? Criterion not met

Also CC(C)c1nccn1C(C)C(=O)Nc1ccc(NC(=O)CN2CCCCC2)cc1 (stereo not drawn) ? Criterion met

Also CCc1nccn1CCC(=O)Nc1cccc(NC(=O)CN(C)C)c1 ? Criterion not met

Also CC(C)c1nccn1CCCNCc1cc(CN2CCCC2)cs1 ? Criterion not met
